All values here come from patent US20100130424A1.

- target-of-assay: T1, human CRH receptor type 2 (human, UniProt Q13324 1-411)
- T1 sequence (looked up): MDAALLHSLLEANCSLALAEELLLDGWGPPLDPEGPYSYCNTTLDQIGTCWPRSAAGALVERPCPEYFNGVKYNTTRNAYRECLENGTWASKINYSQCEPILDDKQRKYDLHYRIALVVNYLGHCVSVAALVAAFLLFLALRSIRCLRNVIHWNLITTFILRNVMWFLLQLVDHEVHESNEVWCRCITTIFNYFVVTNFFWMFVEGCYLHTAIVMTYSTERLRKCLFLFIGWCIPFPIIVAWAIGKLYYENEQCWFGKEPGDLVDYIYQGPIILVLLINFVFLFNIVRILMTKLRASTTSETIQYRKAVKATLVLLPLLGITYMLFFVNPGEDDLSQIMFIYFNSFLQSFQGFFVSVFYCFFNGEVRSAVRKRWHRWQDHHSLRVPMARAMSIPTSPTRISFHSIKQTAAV
- assay-notes: cell-based or functional assay
No end group written: not given here.
Under this convention, 1 denotes Log DR against h-SCP, cAMP strictly below 1 log10 ratio and -1 denotes Log DR against h-SCP, cAMP at or above 1 log10 ratio.

Solved cases (6 shown):
| binder | label-class |
| --- | --- |
| TKFTLSLDVPTNIMNLLFNIAKCKNLRAQAAANAHLMAQI-NH2 [Cys-variant CRHR2 peptide agonist, SEQ ID NO: 24] | 1 |
| TKFTLSLDVPTNIMNLLFNCAKAKNLRAQAAANAHLMAQI-NH2 [Cys-variant CRHR2 peptide agonist, SEQ ID NO: 21] | 1 |
| TKFTLSLCVPTNIMNLLFNIAKAKNLRAQAAANAHLMAQI (NES-PEG (about 20 kDa) on Cys 8; C-terminal amide) [Pegylated Cys-variant CRHR2 peptide agonist (NES linker, PEG about 20 kDa), SEQ ID NO: 62] | -1 |
| TKFTLSLDVPTNIMNLLFNIAKAKNLRAQACANAHLMAQI (NES-PEG (about 20 kDa) on Cys 31; C-terminal amide) [Pegylated Cys-variant CRHR2 peptide agonist (NES linker, PEG about 20 kDa), SEQ ID NO: 85] | 1 |
| TKFTLSLDVPTNIMNLLFNIAKAKNLRAQAAACAHLMAQI-NH2 [Cys-variant CRHR2 peptide agonist, SEQ ID NO: 34] | -1 |
| TKFTLCLDVPTNIMNLLFNIAKAKNLRAQAAANAHLMAQI-NH2 [Cys-variant CRHR2 peptide agonist, SEQ ID NO: 7] | -1 |

Qu. Is Log DR against h-SCP, cAMP strictly under 1 log10 ratio for the entry TKFTLSLDVPTNIMNLCFNIAKAKNLRAQAAANAHLMAQI-NH2 [Cys-variant CRHR2 peptide agonist, SEQ ID NO: 18] ?
Ans. -1

Qu. Is Log DR against h-SCP, cAMP strictly under 1 log10 ratio for the entry TKFTLSLDVPTNIMNLLFNIAKAKNLRAQAAANAHLMAQC-NH2 [Cys-variant CRHR2 peptide agonist, SEQ ID NO: 41] ?
Ans. -1

Qu. Is Log DR against h-SCP, cAMP strictly under 1 log10 ratio for the entry TKFTLSLDVPTNCMNLLFNIAKAKNLRAQAAANAHLMAQI-NH2 [Cys-variant CRHR2 peptide agonist, SEQ ID NO: 14] ?
Ans. -1

Qu. Is Log DR against h-SCP, cAMP strictly under 1 log10 ratio for the entry TKFTLSLDVPTNIMNLLFNICKAKNLRAQAAANAHLMAQI (NES-PEG (about 20 kDa) on Cys 21; C-terminal amide) [Pegylated Cys-variant CRHR2 peptide agonist (NES linker, PEG about 20 kDa), SEQ ID NO: 75] ?
Ans. -1

Qu. Is Log DR against h-SCP, cAMP strictly under 1 log10 ratio for the entry TKFTLSLDVPTNIMNLLFNIAKAKNCRAQAAANAHLMAQI-NH2 [Cys-variant CRHR2 peptide agonist, SEQ ID NO: 27] ?
Ans. 1

Qu. Is Log DR against h-SCP, cAMP strictly under 1 log10 ratio for the entry TKFTLSLDVPTNIMNLLFNIAKAKNLRACAAANAHLMAQI-NH2 [Cys-variant CRHR2 peptide agonist, SEQ ID NO: 30] ?
Ans. -1

Qu. Is Log DR against h-SCP, cAMP strictly under 1 log10 ratio for the entry TKFTLSLDVPTNIMNLLFNIAKAKNLCAQAAANAHLMAQI (NES-PEG (about 20 kDa) on Cys 27; C-terminal amide) [Pegylated Cys-variant CRHR2 peptide agonist (NES linker, PEG about 20 kDa), SEQ ID NO: 81] ?
Ans. -1

Qu. Is Log DR against h-SCP, cAMP strictly under 1 log10 ratio for the entry TKFTLSLDVPTNIMCLLFNIAKAKNLRAQAAANAHLMAQI-NH2 [Cys-variant CRHR2 peptide agonist, SEQ ID NO: 16] ?
Ans. 1

Qu. Is Log DR against h-SCP, cAMP strictly under 1 log10 ratio for the entry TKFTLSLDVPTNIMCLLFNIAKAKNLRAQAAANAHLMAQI (NES-PEG (about 20 kDa) on Cys 15; C-terminal amide) [Pegylated Cys-variant CRHR2 peptide agonist (NES linker, PEG about 20 kDa), SEQ ID NO: 69] ?
Ans. -1

Qu. Is Log DR against h-SCP, cAMP strictly under 1 log10 ratio for the entry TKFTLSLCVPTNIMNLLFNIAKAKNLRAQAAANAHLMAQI-NH2 [Cys-variant CRHR2 peptide agonist, SEQ ID NO: 9] ?
Ans. -1

Qu. Is Log DR against h-SCP, cAMP strictly under 1 log10 ratio for the entry TKFTLSLDVPTNIMNLLFCIAKAKNLRAQAAANAHLMAQI (NES-PEG (about 20 kDa) on Cys 19; C-terminal amide) [Pegylated Cys-variant CRHR2 peptide agonist (NES linker, PEG about 20 kDa), SEQ ID NO: 73] ?
Ans. -1

Qu. Is Log DR against h-SCP, cAMP strictly under 1 log10 ratio for the entry TKFTLSLDVPTNIMNLLFCIAKAKNLRAQAAANAHLMAQI-NH2 [Cys-variant CRHR2 peptide agonist, SEQ ID NO: 20] ?
Ans. 1

Qu. Is Log DR against h-SCP, cAMP strictly under 1 log10 ratio for the entry TKFTLSLDVPTCIMNLLFNIAKAKNLRAQAAANAHLMAQI (NES-PEG (about 20 kDa) on Cys 12; C-terminal amide) [Pegylated Cys-variant CRHR2 peptide agonist (NES linker, PEG about 20 kDa), SEQ ID NO: 66] ?
Ans. -1
